Molecular target: T1, DDX21 full length (1-783) (Homo sapiens, UniProt Q9NR30 1-783)
T1 sequence: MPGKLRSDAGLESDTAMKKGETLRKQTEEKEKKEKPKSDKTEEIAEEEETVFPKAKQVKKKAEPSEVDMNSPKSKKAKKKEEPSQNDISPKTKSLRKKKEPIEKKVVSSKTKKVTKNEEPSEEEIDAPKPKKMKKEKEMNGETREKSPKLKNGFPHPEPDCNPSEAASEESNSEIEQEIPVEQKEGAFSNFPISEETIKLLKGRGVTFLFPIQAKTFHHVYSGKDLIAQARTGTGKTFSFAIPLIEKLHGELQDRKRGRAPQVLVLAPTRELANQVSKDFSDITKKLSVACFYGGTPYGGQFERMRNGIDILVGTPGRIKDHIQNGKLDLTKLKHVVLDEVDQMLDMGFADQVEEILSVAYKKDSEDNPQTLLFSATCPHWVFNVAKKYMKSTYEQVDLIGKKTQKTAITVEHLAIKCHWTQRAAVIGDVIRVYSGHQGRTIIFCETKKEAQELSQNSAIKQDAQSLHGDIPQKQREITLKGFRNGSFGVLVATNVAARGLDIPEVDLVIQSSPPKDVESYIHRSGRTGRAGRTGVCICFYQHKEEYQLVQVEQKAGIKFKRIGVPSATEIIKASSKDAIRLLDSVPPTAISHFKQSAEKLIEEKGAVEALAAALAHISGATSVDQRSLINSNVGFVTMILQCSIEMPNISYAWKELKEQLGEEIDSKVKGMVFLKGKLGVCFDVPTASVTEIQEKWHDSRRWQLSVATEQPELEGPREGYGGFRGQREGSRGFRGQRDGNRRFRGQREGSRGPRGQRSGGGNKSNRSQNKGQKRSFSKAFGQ
Assay: MST
# key: entry, value: pKd
Worth noting: pKd values are minus log10 of concentrations stated in mol/L.

{"binder": "GUUGGGGCGGGCGUUGGGUUUGGGGGGACG (structured_RNA) [Q2]", "pKd": 8.00}

Note: attention shifts to another entry.
Using the record for AGGGUGGGCCUGGGAGGGGUGGUGGCCAU (structured_RNA) [hTR(10-43)] , report its pKd.
6.49

The reported numbers originate from paper PMC5499804.
